- assay_comment: Cmax in squirrel monkey at 0.4 mg/kg
- Type: ADME, organism-based
- Parameters: dose 0.4 mg/kg
- details: saimiri, in vivo

>  <compound>
CC(C)(c1cc(-c2cccc(CC(F)(c3ccc(S(C)(=O)=O)cc3)C(O)(C3CC3)C3CC3)c2)c2ncccc2c1)S(C)(=O)=O (single isomer, unassigned; Enantio B)

>  <Cmax, nM>
100

$$$$

---

- assay_comment: Cmax in squirrel monkey at 10 mg/kg
- Assay type: ADME, organism-based
- Design: dose 10 mg/kg
- details: saimiri, in vivo
assay_endpoint: Cmax

>  <smiles>
Cc1noc(/C(=C/c2cccc(-c3cc(C(C)(C)S(C)(=O)=O)cc4cccnc34)c2)c2ccc(S(C)(=O)=O)cc2)n1

>  <endpoint_result>
3.8 µM

$$$$

Every entry's value here was drawn from ChEMBL document CHEMBL1155332.
